Tested on: E. coli TESEC Mtb Asd
experiment_notes: growth (OD600 after 10 h); higher = more growth (less inhibition)
settings: arabinose induction (level): Low; compound 0.1 mM; raw OD600 reference: median of DMSO wells 0.417, cell-free background 0.041
Counter-ions that a name gives are not always drawn.
The following compounds are listed with their measured growth values.

| compound | target_or_test_system | growth |
| --- | --- | --- |
| O=P1(N(CCCl)CCCl)NCCCO1 (stereo not given) [Cyclophosphamide] | E. coli TESEC Mtb Asd | 0.446 |
| OC(c1ccccc1)(c1ccccc1)C1CCNCC1 | E. coli TESEC Mtb Asd | 0.442 |
| CN1CCC2(C)c3cc(O)ccc3N(C)C12 (single isomer, unassigned; (-)) [(-)-Eseroline fumarate salt] | E. coli TESEC Mtb Asd | 0.402 |
| O=P1(NCCCl)OCCCN1CCCl (stereo not given) [Ifosfamide] | E. coli TESEC Mtb Asd | 0.48 |
| C[C@]12CCC(=O)C(O)=C1CC[C@@H]1[C@@H]2CC[C@]2(C)C(=O)CC[C@@H]12 | E. coli TESEC Mtb Asd | 0.25 |
| CN(C)[C@@H]1C(=O)C(C(N)=O)=C(O)[C@@]2(O)C(=O)C3=C(O)c4c(O)ccc(Cl)c4[C@@](C)(O)[C@H]3C[C@@H]12 [Chlortetracycline hydrochloride] | E. coli TESEC Mtb Asd | 0.0479 |
| C[C@H](N)[C@H](O)c1ccc(O)c(O)c1 | E. coli TESEC Mtb Asd | 0.357 |
| C[C@]12CC[C@H](O)C[C@H]1CC[C@@H]1[C@@H]2CC[C@]2(C)[C@@H](C3=CC(=O)OC3)CC[C@]12O | E. coli TESEC Mtb Asd | 0.289 |
| C[C@@H]1CC[C@H]2[C@@H](C)C(=O)O[C@@H]3O[C@@]4(C)CC[C@@H]1[C@]32OO4 | E. coli TESEC Mtb Asd | 0.216 |
| Cc1cccc(C)c1NC1=NCCCS1 | E. coli TESEC Mtb Asd | 0.34 |
| C[C@]12C[C@H]3S[C@H]3C[C@@H]1CC[C@@H]1[C@@H]2CC[C@]2(C)[C@@H](O)CC[C@@H]12 [Epitiostanol] | E. coli TESEC Mtb Asd | 0.337 |
| CC1C=CC=CCCC=CC=CC=CC=CC(OC2OC(C)C(O)C(N)C2O)CC2OC(O)(CC(O)C(O)CCC(O)CC(O)CC(O)CC(=O)OC(C)C(C)C1O)CC(O)C2C(=O)O (stereo not given) | E. coli TESEC Mtb Asd | 0.256 |
| C[C@]12CC[C@H](O)C[C@H]1CC[C@@H]1[C@@H]2C[C@@H](O)[C@]2(C)[C@@H](C3=CC(=O)OC3)CC[C@]12O | E. coli TESEC Mtb Asd | 0.458 |
| C[C@@H]1C[C@@H]([C@H](O)CC2CC(=O)NC(=O)C2)C(=O)[C@@H](C)C1 [Cycloheximide] | E. coli TESEC Mtb Asd | 0.443 |
| C[C@]12CC[C@@H](O)C[C@H]1CC[C@@H]1[C@@H]2CC[C@]2(C)C(=O)CC[C@@H]12 [3-alpha-Hydroxy-5-beta-androstan-17-one] | E. coli TESEC Mtb Asd | 0.171 |

====

The following compounds are listed with their measured growth values.
System: E. coli TESEC Mtb Asd
experiment_notes: growth (OD600 after 10 h); higher = more growth (less inhibition)
settings: arabinose induction (level): High; compound 0.1 mM; raw OD600 reference: median of DMSO wells 0.331, cell-free background 0.041
Structures can show the parent of a compound that is named as a salt.

| compound | growth |
| --- | --- |
| CC(C)c1cccc(C(C)C)c1O [Propofol] | 0.441 |
| CC[C@@H](CO)NC(=O)[C@@H]1C=C2c3cccc4[nH]cc(c34)C[C@H]2N(C)C1 [Methylergometrine maleate] | 0.228 |
| C[C@]12CCC(=O)C(O)=C1CC[C@@H]1[C@@H]2CC[C@]2(C)C(=O)CC[C@@H]12 [Formestane] | 0.13 |
| O=C(CCCN1CCC2(CC1)C(=O)NCN2c1ccccc1)c1ccc(F)cc1 [Spiperone] | 0.274 |

====

Test system: E. coli TESEC Mtb Alr
experiment_notes: growth (OD600 after 10 h); higher = more growth (less inhibition)
settings: arabinose 10000000 nM; compound 0.1 mM; raw OD600 reference: median of DMSO wells 0.146, cell-free background 0.041
Counter-ions that a name gives are not always drawn.
growth of 0.1 or higher: met. Under 0.1: not met.

| compound | assigned_label |
| --- | --- |
| O=c1[nH]c2ccccc2n1CCCN1CCC(n2c(=O)[nH]c3cc(Cl)ccc32)CC1 [Domperidone] | met |
| CN[C@@H]1C[C@@H](c2ccc(Cl)c(Cl)c2)c2ccccc21 [Indatraline hydrochloride] | not met |
| C[C@]12COC(=O)C[C@@H]1CC[C@@H]1[C@@H]2CC[C@@]2(C)[C@H]1CC[C@]2(C)O [Oxandrolone] | met |
| C[N+]1(C)CCOC(O)(c2ccc(-c3ccc(C4(O)C[N+](C)(C)CCO4)cc3)cc2)C1 (configuration not stated) [Hemicholinium bromide] | met |
| CC(Cc1ccccc1)NCCC(c1ccccc1)c1ccccc1 (configuration not stated) [Prenylamine lactate] | not met |
| CC(C)(C)NCC(O)c1ccccc1Cl (configuration not stated) [Tulobuterol] | met |
| CN(C)[C@@H]1C(=O)C(C(N)=O)=C(O)[C@@]2(O)C(=O)C3=C(O)c4c(O)ccc(Cl)c4[C@@](C)(O)[C@H]3C[C@@H]12 [Chlortetracycline hydrochloride] | not met |

====

The following compounds are listed with their measured growth values.
Tested on: E. coli TESEC Mtb Alr
experiment_notes: growth (OD600 after 10 h); higher = more growth (less inhibition)
settings: arabinose 1000000 nM; compound 0.1 mM; raw OD600 reference: median of DMSO wells 0.193, cell-free background 0.041
Counter-ions that a name gives are not always drawn.

| compound | growth |
| --- | --- |
| CC(C)(C)NCC(O)c1ccccc1Cl (centres undefined) | 0.203 |
| CNCC(O)c1ccc(O)cc1 (racemic) [(+,-)-Synephrine] | 0.198 |
| NCCc1c[nH]c2ccc(O)cc12 [Serotonin hydrochloride] | 0.201 |
| C=C1C[C@@H]2[C@H](CC[C@]3(C)C(=O)CC[C@@H]23)[C@@]2(C)C=CC(=O)C=C12 | 0.0722 |
| COc1cccc(C2(O)CCCCC2CN(C)C)c1 (centres undefined) [Tramadol hydrochloride] | 0.193 |
| NC(=O)OCCCc1ccccc1 [Phenprobamate] | 0.192 |
| C[C@]12CCC(=O)C(O)=C1CC[C@@H]1[C@@H]2CC[C@]2(C)C(=O)CC[C@@H]12 | 0.0848 |
| C[C@]12CCC(=O)C=C1CC[C@@H]1[C@@H]2C(=O)C[C@]2(C)C(=O)CC[C@@H]12 | 0.131 |
| COc1ccc(CCN)cc1OC | 0.219 |

====

Tested on: E. coli TESEC Mtb DapB
experiment_notes: growth (OD600 after 10 h); higher = more growth (less inhibition)
settings: arabinose induction (level): Low; compound 0.1 mM; raw OD600 reference: median of DMSO wells 0.227, cell-free background 0.041
Structures can show the parent of a compound that is named as a salt.
growth of 0.2 or higher: true. Under 0.2: false.

| compound | assigned_label |
| --- | --- |
| CC(NC(C)(C)C)C(=O)c1cccc(Cl)c1 (stereo not drawn) [Bupropion hydrochloride] | true |
| C[C@]12CC[C@H]3[C@@H](CCC4=CC(=O)CC[C@@H]43)[C@@H]1CC[C@@H]2O [Nandrolone] | false |
| CN1C[C@H](CNC(=O)OCc2ccccc2)C[C@@H]2c3cccc4c3c(cn4C)C[C@H]21 [Metergoline] | false |
| CN(C)C(=O)Oc1ccc[n+](C)c1 [Pyridostigmine iodide] | true |
| CCn1cc(C(=O)O)c(=O)c2cc3c(cc21)OCO3 [Oxolinic acid] | true |
| C[CH2][Hg][S]c1ccccc1C(=O)[O-].[Na+] [Thimerosal] | true |

====

Tested on: E. coli TESEC Mtb Alr
experiment_notes: growth (OD600 after 10 h); higher = more growth (less inhibition)
settings: arabinose 10000000 nM; compound 0.1 mM; raw OD600 reference: median of DMSO wells […], cell-free background 0.052
Structures can show the parent of a compound that is named as a salt.

| molecule | growth |
| --- | --- |
| CC(N)C(O)c1ccccc1 (centres undefined) [Phenylpropanolamine hydrochloride] | 0.345 |
| O=C(O)CCCc1ccc(N(CCCl)CCCl)cc1 [Chlorambucil] | 0.326 |
| C[C@]12N[C@H](Cc3ccccc31)c1ccccc12 [Dizocilpine maleate] | 0.304 |
| CC(C)[N+](C)(CCC(C(N)=O)(c1ccccc1)c1ccccc1)C(C)C [Isopropamide iodide] | 0.331 |
| CCCC(C)(COC(N)=O)COC(=O)NC(C)C (centres undefined) [Carisoprodol] | 0.341 |
| NC(=O)C[S+]([O-])C(c1ccccc1)c1ccccc1 (centres undefined) [Modafinil] | 0.346 |
| CCC1(C)CC(=O)NC(=O)C1 [Bemegride] | 0.363 |
| CC(=O)O[C@H]1C[C@H](O[C@H]2[C@@H](O)C[C@H](O[C@H]3[C@@H](O)C[C@H](O[C@H]4CC[C@@]5(C)[C@H](CC[C@@H]6[C@@H]5C[C@@H](O)[C@]5(C)[C@@H](C7=CC(=O)OC7)CC[C@]65O)C4)O[C@@H]3C)O[C@@H]2C)O[C@H](C)[C@H]1O[C@@H]1O[C@H](CO)[C@@H](O)[C@H](O)[C@H]1O [Lanatoside C] | 0.354 |
| Fc1ccc(C(OCCN2CCN(CCCc3ccccc3)CC2)c2ccc(F)cc2)cc1 | 0.0503 |
